Tested on: Escherichia coli
protocol_notes: Antibacterial activity against Escherichia coli ATCC 25922 incubated for 18 to 24 hrs by micro-dilution method
Assay type: functional
Field: log10 MIC. Provide a value for each of the compounds that follow.
Please be aware that the numbers have been log10-transformed from MIC in µM.

Consider the following illustrative entries.
O=C(OCc1cn(-c2cccc(Cl)c2)nn1)c1cn(C2CC2)c2cc(N3CCN(Cc4cn(-c5cccc(Cl)c5)nn4)CC3)c(F)cc2c1=O    0.04
O=C(OCc1cn(-c2cccc(Cl)c2Cl)nn1)c1cn(C2CC2)c2cc(N3CCN(Cc4cn(-c5cccc(Cl)c5Cl)nn4)CC3)c(F)cc2c1=O    0.90
C#CCOC(=O)c1cn(C2CC2)c2cc(N3CCN(CC#C)CC3)c(F)cc2c1=O    0.28
O=C(OCc1cn(-c2ccc(Br)cc2)nn1)c1cn(C2CC2)c2cc(N3CCN(Cc4cn(-c5ccc(Br)cc5)nn4)CC3)c(F)cc2c1=O    0.89
O=C(OCc1cn(-c2ccc(F)c(Cl)c2)nn1)c1cn(C2CC2)c2cc(N3CCN(Cc4cn(-c5ccc(F)c(Cl)c5)nn4)CC3)c(F)cc2c1=O    0.92

Please supply log10 MIC for each of the following items, keeping them in order.
1. O=C(OCc1cn(-c2ccc(Cl)cc2)nn1)c1cn(C2CC2)c2cc(N3CCN(Cc4cn(-c5ccc(Cl)cc5)nn4)CC3)c(F)cc2c1=O
2. O=C(OCc1cn(-c2ccc(F)cc2F)nn1)c1cn(C2CC2)c2cc(N3CCN(Cc4cn(-c5ccc(F)cc5F)nn4)CC3)c(F)cc2c1=O
3. Cc1cc(C)cc(-n2cc(COC(=O)c3cn(C4CC4)c4cc(N5CCN(Cc6cn(-c7cc(C)cc(C)c7)nn6)CC5)c(F)cc4c3=O)nn2)c1
4. O=C(OCc1cn(-c2ccc(F)cc2Cl)nn1)c1cn(C2CC2)c2cc(N3CCN(Cc4cn(-c5ccc(F)cc5Cl)nn4)CC3)c(F)cc2c1=O
5. CC(=O)c1ccc(-n2cc(COC(=O)c3cn(C4CC4)c4cc(N5CCN(Cc6cn(-c7ccc(C(C)=O)cc7)nn6)CC5)c(F)cc4c3=O)nn2)cc1
6. Cc1ccc(-n2cc(COC(=O)c3cn(C4CC4)c4cc(N5CCN(Cc6cn(-c7ccc(C)cc7Cl)nn6)CC5)c(F)cc4c3=O)nn2)c(Cl)c1

(A)
[0.64, 0.94, 2.15, 1.22, 0.33, 1.83]
